# Test system: LOX IMVI melanoma
# ASSAY SUMMARY: NCI tumour cell line growth inhibition, 48 h
Exercise: for every item that follows, state its recorded TGI.

Before answering, review these 6 worked examples.
Nc1cc2c(nnn2C2OC(COCc3ccccc3)C(OCc3ccccc3)C2OCc2ccccc2)c(=O)[nH]1 (stereo not given)
53.2 µM
CC(C)(C)OC(=O)CC(NC(=O)OC(C)(C)C)C(=O)N[C@@H]1CCCC[C@H]1C(=O)OCc1ccccc1 (stereo not given in full)
> 100 µM
CN(C)c1ccc(/C=C(\NC(=O)c2ccccc2)C(=O)NCC(=O)O)cc1
> 100 µM
Cc1ccccc1C1OC(=O)c2ccccc21 (stereo not given)
> 100 µM
COc1ccc2c(c1)=C(C=C1C=CN(O)C=C1)C(=O)N=2
> 67.3 µM
O=Cc1cc([N+](=O)[O-])no1
> 100 µM

Could you tell me TGI for each of these molecules? They are listed below.
1. CCCOC(=O)C1CCC(=O)N1C(=O)C(C)Cl (stereo not given)
2. CC/C(=C(/c1ccc(OCCN(C)C)cc1)c1ccc(OC(=O)CCC(=O)c2c(C)[nH]c(/C=C3\N=C(c4ccc[nH]4)C=C3OC)c2C)cc1)c1ccccc1

OUT:
1: > 100 µM; 2: 1.69 µM

Your task in this section: give TGI for each listed record.
1. O=S(=O)(N/N=C/c1ccc(Cl)c(Cl)c1)c1ccccc1
2. Cc1cc(NCCCNc2ccnc3cc(Cl)ccc23)nc(N2CCN(C)CC2)n1
3. CCOC(=O)N1C2C=C(C)C(ON2C(=O)c2ccccc2)C2C(C)C(=O)N21 (stereo not given)
4. c1ccc2c(c1)Nc1ccccc1[P+]21c2ccccc2Nc2ccccc21
5. CCCc1cc(O)c2c3c(c(=O)oc2c1)CN(C)CC3
6. COCO[C@@H]1C[C@H]2C(=O)N(COC)c3ccccc3C(=O)N2C1

OUT:
> 100 µM
5.2 µM
> 100 µM
2.23 µM
> 100 µM
> 100 µM

Below is a list of molecules. For each, state its recorded TGI.
1. n1onc2c1NC1Nc3nonc3NC1N2 (stereo not given)
2. COc1cc2c3c(n(CCCN(CCN)CCCn4c5c(c6cc(OC)c(OC)cc6c4=O)C(=O)c4cc6c(cc4-5)OCO6)c(=O)c2cc1OC)-c1cc2c(cc1C3=O)OCO2
3. COc1ccc(NC(=O)CC(=O)N2N=C(N(CCC#N)c3ccccc3Cl)CC2c2ccccc2)cc1 (stereo not given)
4. COc1cc(-n2cc(-c3ccc(F)cc3)nc2SCc2ccccc2)cc(OC)c1OC
5. Cc1c(C#N)c2ccccc2c2nc3ccccc3n12
6. Cn1ccnc1C(=O)/C=C/c1ccc(C(=O)Nc2ccc(S(F)(F)(F)(F)F)cc2)cc1

OUT:
1. > 100 µM
2. 6.32 µM
3. > 100 µM
4. > 100 µM
5. > 100 µM
6. 3.25 µM

----------
# System: TK-10 renal
# ASSAY SUMMARY: NCI tumour cell line growth inhibition, 48 h
Can you tell me TGI for the items I'm about to list?
Give bare numbers, in µM.

Known TGI results, listed for orientation:
Nc1cc2c(nnn2C2OC(COCc3ccccc3)C(OCc3ccccc3)C2OCc2ccccc2)c(=O)[nH]1 (stereo not given)
52.1
CCC[CH2][Sn]([CH2]CCC)([O]C(=O)c1cc(F)ccc1F)[O][Sn]([CH2]CCC)([CH2]CCC)[O]C(=O)c1cc(F)ccc1F
0.616
O=[N+]([O-])c1ccccc1N=Nc1c(O)[nH]c2ccc(Br)cc12
30.8
CN(C)Cc1cc(N=Nc2cccc(Cl)c2)ccc1O
23.2
CC(C)CCC[C@@H](C)[C@H]1CC[C@H]2[C@@H]3CC[C@H]4C[C@H](N)CC[C@]4(C)[C@H]3CC[C@]12C
37.2

Batch of 3 compounds: report TGI for each.
1. COC(=O)C1=C(C(=O)OC)C(Cc2ccccc2)(OO)OC1=O (stereo not given)
2. CC(C)c1c(C(=O)Nc2ccccc2)c(-c2ccccc2)c(-c2ccc(F)cc2)n1CC[C@@H]1CC=CC(=O)O1
3. CC(C)Nc1ccc(Nc2ccccc2)cc1

OUT:
15
4.67
57.4
